Reported isobaric coefficient of expansion values for the following compounds.
protocol: isobaric coefficient of expansion
cond: 278.15 K; 50000 kPa; Liquid; DSC
reported.endpoint: isobaric coefficient of expansion

INSERT INTO measurements (compound, reported_endpoint, meas_value) VALUES
  ('CC[N+](=O)[O-] [nitroethane]', 'isobaric coefficient of expansion', '0.000958 1/K'),
  ('CCC#N [propanenitrile]', 'isobaric coefficient of expansion', '0.001 1/K'),
  ('C[N+](=O)[O-] [nitromethane]', 'isobaric coefficient of expansion', '0.001 1/K'),
  ('CCC[N+](=O)[O-] [1-nitropropane]', 'isobaric coefficient of expansion', '0.000885 1/K'),
  ('N#Cc1ccccc1 [benzonitrile]', 'isobaric coefficient of expansion', '0.000752 1/K');

----------
protocol: isobaric coefficient of expansion
cond: 308.15 K; 35000 kPa; Liquid; DSC
Reported isobaric coefficient of expansion values for a set of compounds
reported.endpoint: isobaric coefficient of expansion

INSERT INTO assay_data (smiles_representation, meas_value) VALUES
  ('CCC[N+](=O)[O-]', '0.000945 1/K'),
  ('CCC#N', '0.00109 1/K'),
  ('N#Cc1ccccc1', '0.000773 1/K'),
  ('C[N+](=O)[O-]', '0.00108 1/K'),
  ('CC[N+](=O)[O-]', '0.00102 1/K'),
  ('O=[N+]([O-])c1ccccc1', '0.00075 1/K');

----------
# isobaric coefficient of expansion per entry
protocol: isobaric coefficient of expansion
cond: 328.15 K; 50000 kPa; Liquid; DSC
reported.endpoint: isobaric coefficient of expansion

INSERT INTO results (smiles_representation, meas_value) VALUES
  ('O=[N+]([O-])c1ccccc1', '0.000716 1/K'),
  ('C[N+](=O)[O-]', '0.00103 1/K'),
  ('N#Cc1ccccc1', '0.000736 1/K'),
  ('CCC[N+](=O)[O-]', '0.000894 1/K'),
  ('CCC#N', '0.00102 1/K'),
  ('CC[N+](=O)[O-]', '0.000964 1/K');

----------
protocol: isobaric coefficient of expansion
cond: 278.15 K; 40000 kPa; Liquid; DSC
reported.endpoint: isobaric coefficient of expansion

INSERT INTO assay_data (compound, reported_endpoint, meas_value) VALUES
  ('CCC[N+](=O)[O-] [1-nitropropane]', 'isobaric coefficient of expansion', '0.000913 1/K'),
  ('CC[N+](=O)[O-] [nitroethane]', 'isobaric coefficient of expansion', '0.000984 1/K'),
  ('CCC#N [propanenitrile]', 'isobaric coefficient of expansion', '0.00104 1/K'),
  ('C[N+](=O)[O-] [nitromethane]', 'isobaric coefficient of expansion', '0.00103 1/K'),
  ('N#Cc1ccccc1 [benzonitrile]', 'isobaric coefficient of expansion', '0.000772 1/K');

----------
Measured isobaric coefficient of expansion, listed per entry.
protocol: isobaric coefficient of expansion
cond: 318.15 K; 30000 kPa; Liquid; DSC
reported.endpoint: isobaric coefficient of expansion

INSERT INTO measurements (smiles_representation, meas_value) VALUES
  ('CC[N+](=O)[O-]', '0.00105 1/K'),
  ('O=[N+]([O-])c1ccccc1', '0.000762 1/K'),
  ('N#Cc1ccccc1', '0.000789 1/K'),
  ('CCC[N+](=O)[O-]', '0.000976 1/K'),
  ('C[N+](=O)[O-]', '0.00111 1/K'),
  ('CCC#N', '0.00113 1/K');

Values were extracted from the NIST ThermoML archive (doi:10.1021/je900672g).
